- Tested on: Oryctolagus cuniculus
- Test method notes: Toxicity in New Zealand white rabbit assessed as baseline mean blood pressure at 1.79 umol/kg, administered as single bolus dose (reference value: 74 +/- 5 mmHg)
- Assay type: organism-based
- Measurement conditions: in vivo
Outcome label depends on Activity relative to 80 mmHg: at/above gives condition met, below gives condition not met.

Form field: Activity at least 80 mmHg? Entry: Nc1ncnc2c1ncn2CCCCO
condition met

Also, NC(=S)c1ccc(OCCCCn2cnc3c(N)ncnc32)cc1 please.
condition met

Also, NC(=O)c1ccc(OCCCCn2cnc3c(N)ncnc32)cc1 please.
condition not met

* * *

Assignment: determine reported Activity for the given compounds.
- Test system: Oryctolagus cuniculus
- Test method notes: Toxicity in New Zealand white rabbit myocardial ischemia/reperfusion injury model assessed as heart rate at 1.79 umol/kg, administered as single bolus dose at 20 mins of sustained ischemia (reference value: 276 +/- 9 bpm)
- Type: organism-based
- Measurement conditions: in vivo
Express the result in bpm but write the number alone.

Fill in the blank: the reported Activity of Nc1ncnc2c1ncn2CCCCO is ____.
266

Also, NC(=O)c1ccc(OCCCCn2cnc3c(N)ncnc32)cc1 please.
258

Also, NC(=S)c1ccc(OCCCCn2cnc3c(N)ncnc32)cc1 please.
276

Also, [Na+].[SH-] [SODIUM HYDROSULFIDE] please.
268

Also, NC(=S)c1ccc(OC[C@H]2O[C@@H](n3cnc4c(N)ncnc43)[C@H](O)[C@@H]2O)cc1 please.
256
